Target: T1, hIL-4Rα on cells (human, UniProt P24394 26-825)
T1 sequence: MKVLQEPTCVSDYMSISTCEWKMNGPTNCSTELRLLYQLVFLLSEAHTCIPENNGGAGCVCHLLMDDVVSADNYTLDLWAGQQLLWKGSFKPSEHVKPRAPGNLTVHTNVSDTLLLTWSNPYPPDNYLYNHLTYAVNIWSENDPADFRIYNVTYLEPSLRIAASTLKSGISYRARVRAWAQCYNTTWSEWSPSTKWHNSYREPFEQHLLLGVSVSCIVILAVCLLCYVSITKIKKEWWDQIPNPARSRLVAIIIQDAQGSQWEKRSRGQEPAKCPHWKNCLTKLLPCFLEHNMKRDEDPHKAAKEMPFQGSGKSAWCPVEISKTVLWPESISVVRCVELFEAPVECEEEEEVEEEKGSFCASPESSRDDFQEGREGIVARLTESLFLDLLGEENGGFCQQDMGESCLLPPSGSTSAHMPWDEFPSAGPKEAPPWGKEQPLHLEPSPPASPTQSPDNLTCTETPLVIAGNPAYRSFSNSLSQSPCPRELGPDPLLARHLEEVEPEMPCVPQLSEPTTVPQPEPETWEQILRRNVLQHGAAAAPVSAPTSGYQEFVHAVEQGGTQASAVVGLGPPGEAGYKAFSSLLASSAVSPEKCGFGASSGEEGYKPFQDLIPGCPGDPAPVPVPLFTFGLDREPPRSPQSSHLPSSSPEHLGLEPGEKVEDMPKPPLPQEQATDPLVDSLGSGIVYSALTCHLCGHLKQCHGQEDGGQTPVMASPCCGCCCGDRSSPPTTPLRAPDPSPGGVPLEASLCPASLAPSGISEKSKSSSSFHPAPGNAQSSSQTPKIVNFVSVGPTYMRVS
Assay: cell-based or functional assay
value-kind: Relative Inhibition of IL-4 induced TF-1 Proliferation IC50

INSERT INTO results (binder, result) VALUES
  ('Construct 35 (mAb467) (antibody, IgG4, V domains shown, VH/VL only) VH: EVQLVESGGGLEQPGGSLRLSCAGSGFTFRTYAMTWVRQAPGKGLEWVSSISGSGGNTYYADSVKGRFTISRDNSKNTLYLQMNSLRAEDTAVYYCAKDRVSITIRPRYYGLDVWGQGTTVTVSS VL: DIVMTQSPLSLPVTPGEPASISCTSSQSLLYSIGKNYVDWYLQKSGQSPQLLIYEGNNRATGVPDRFSGSGSGTDFTLKISRVEAEDVGFYYCMQSLTSPYTFGQGTKLEIK', '0.948 relative to dupilumab'),
  ('Construct 25 (mAb433) (antibody, IgG4, V domains shown, VH/VL only) VH: EVQLVESGGGLEQPGGSLRLSCAGSGFTFRDFAMTWVRQAPGKGLEWVSSISGSGDNIYYADSVKGRFTISRDNSKNTLYLQMNSLRAEDTAVYYCAKDRLSKTIRPRYYGLDVWGQGTTVTVSS VL: DIVMTQSPLSLPVTPGEPASISCTASQSLLYSIGYNYLDWYLQKSGQSPQLLIYEGNKRASGVPDRFSGSGSGTDFTLKISRVEAEDVGFYYCMQSLTSPYTFGQGTKLEIK', '2.04 relative to dupilumab');
